This collection of values is drawn from patent US11787825B2.

- condition-set: 0.1N HCL, 1.0% DMSO, 24-hour incubation at ambient temperature, maximum theoretical compound concentration 100 μM
metric: pH 2 solubility (μM)
Express the result in μM but write the number alone.

The examples below pair each entry with its known result.
{"compound": "CC(C)(C#Cc1ccc(-c2ccc(Cl)c3c(N(C(=O)CCCC(=O)OCOP(=O)(O)O)S(C)(=O)=O)nn(CC(F)(F)F)c23)c([C@H](Cc2cc(F)cc(F)c2)NC(=O)Cn2nc(C(F)(F)F)c3c2C(F)(F)[C@@H]2C[C@H]32)n1)S(C)(=O)=O [Compound 29]", "numeric-result": 2}
{"compound": "CC(C)(C#Cc1ccc(-c2ccc(Cl)c3c(N(C(=O)CNC(=O)OCOP(=O)(O)O)S(C)(=O)=O)nn(CC(F)(F)F)c23)c([C@H](Cc2cc(F)cc(F)c2)NC(=O)Cn2nc(C(F)(F)F)c3c2C(F)(F)[C@@H]2C[C@H]32)n1)S(C)(=O)=O [Compound 35]", "numeric-result": 2}

According to the records, this compound CC(C)(C#Cc1ccc(-c2ccc(Cl)c3c(N(C(=O)[C@@H](N)CCCNC(=N)N)S(C)(=O)=O)nn(CC(F)(F)F)c23)c([C@H](Cc2cc(F)cc(F)c2)NC(=O)Cn2nc(C(F)(F)F)c3c2C(F)(F)[C@@H]2C[C@H]32)n1)S(C)(=O)=O [Compound 22] displays pH 2 solubility of 100

----------
- protocol-details: physchem
- condition-set: 25 °C, fassif, thermodynamic from solid
Could you label it Y if measured solubility is 1000 µg/mL or higher, and N otherwise?

{"smiles-data": "Cc1cc(C(=O)NCP(=O)(O)O)cc(OP(=O)(O)O)c1C(C)(C)CC(=O)N(c1nn(CC(F)(F)F)c2c(-c3ccc(C#CC(C)(C)S(C)(=O)=O)nc3[C@H](Cc3cc(F)cc(F)c3)NC(=O)Cn3nc(C(F)(F)F)c4c3C(F)(F)[C@@H]3C[C@H]43)ccc(Cl)c12)S(C)(=O)=O", "label": "Y"}
{"smiles-data": "Cc1cc(CP(=O)(O)O)cc(OP(=O)(O)O)c1C(C)(C)CC(=O)N(c1nn(CC(F)(F)F)c2c(-c3ccc(C#CC(C)(C)S(C)(=O)=O)nc3[C@H](Cc3cc(F)cc(F)c3)NC(=O)Cn3nc(C(F)(F)F)c4c3C(F)(F)[C@@H]3C[C@H]43)ccc(Cl)c12)S(C)(=O)=O", "label": "Y"}
{"smiles-data": "Cc1cc(CP(=O)(O)O)c(C(C)(C)CC(=O)N(c2nn(CC(F)(F)F)c3c(-c4ccc(C#CC(C)(C)S(C)(=O)=O)nc4[C@H](Cc4cc(F)cc(F)c4)NC(=O)Cn4nc(C(F)(F)F)c5c4C(F)(F)[C@@H]4C[C@H]54)ccc(Cl)c23)S(C)(=O)=O)c(OP(=O)(O)O)c1", "label": "Y"}
{"smiles-data": "CN(C(=O)N(c1nn(CC(F)(F)F)c2c(-c3ccc(C#CC(C)(C)S(C)(=O)=O)nc3[C@H](Cc3cc(F)cc(F)c3)NC(=O)Cn3nc(C(F)(F)F)c4c3C(F)(F)[C@@H]3C[C@H]43)ccc(Cl)c12)S(C)(=O)=O)c1ncccc1COP(=O)(O)O", "label": "N"}
{"smiles-data": "Cc1cc(CC(=O)O)cc(OP(=O)(O)O)c1C(C)(C)CC(=O)N(c1nn(CC(F)(F)F)c2c(-c3ccc(C#CC(C)(C)S(C)(=O)=O)nc3[C@H](Cc3cc(F)cc(F)c3)NC(=O)Cn3nc(C(F)(F)F)c4c3C(F)(F)[C@@H]3C[C@H]43)ccc(Cl)c12)S(C)(=O)=O", "label": "Y"}

Hi, just wondering whether `Cc1cc(C(=O)N[C@@H](CC(=O)O)C(=O)O)cc(OP(=O)(O)O)c1C(C)(C)CC(=O)N(c1nn(CC(F)(F)F)c2c(-c3ccc(C#CC(C)(C)S(C)(=O)=O)nc3[C@H](Cc3cc(F)cc(F)c3)NC(=O)Cn3nc(C(F)(F)F)c4c3C(F)(F)[C@@H]3C[C@H]43)ccc(Cl)c12)S(C)(=O)=O` shows solubility of 1000 µg/mL or higher.
Y

Hi, just wondering whether `Cc1cc(C(=O)O)cc(OP(=O)(O)O)c1C(C)(C)CC(=O)N(c1nn(CC(F)(F)F)c2c(-c3ccc(C#CC(C)(C)S(C)(=O)=O)nc3[C@H](Cc3cc(F)cc(F)c3)NC(=O)Cn3nc(C(F)(F)F)c4c3C(F)(F)[C@@H]3C[C@H]43)ccc(Cl)c12)S(C)(=O)=O` shows solubility of 1000 µg/mL or higher.
N

Hi, just wondering whether `Cc1cc(CC(=O)NCP(=O)(O)O)c(C(C)(C)CC(=O)N(c2nn(CC(F)(F)F)c3c(-c4ccc(C#CC(C)(C)S(C)(=O)=O)nc4[C@H](Cc4cc(F)cc(F)c4)NC(=O)Cn4nc(C(F)(F)F)c5c4C(F)(F)[C@@H]4C[C@H]54)ccc(Cl)c23)S(C)(=O)=O)c(OP(=O)(O)O)c1` shows solubility of 1000 µg/mL or higher.
Y

Hi, just wondering whether `C[C@H](NC(=O)OCOP(=O)(O)O)C(=O)N(c1nn(CC(F)(F)F)c2c(-c3ccc(C#CC(C)(C)S(C)(=O)=O)nc3[C@H](Cc3cc(F)cc(F)c3)NC(=O)Cn3nc(C(F)(F)F)c4c3C(F)(F)[C@@H]3C[C@H]43)ccc(Cl)c12)S(C)(=O)=O` shows solubility of 1000 µg/mL or higher.
N

Hi, just wondering whether `CN(C(=O)N(c1nn(CC(F)(F)F)c2c(-c3ccc(C#CC(C)(C)S(C)(=O)=O)nc3[C@H](Cc3cc(F)cc(F)c3)NC(=O)Cn3nc(C(F)(F)F)c4c3C(F)(F)[C@@H]3C[C@H]43)ccc(Cl)c12)S(C)(=O)=O)c1ccccc1OP(=O)(O)O` shows solubility of 1000 µg/mL or higher.
Y
